- Target Of Assay: Neu5Ac(a2-3)Gal6S(b1-4)[Fuc(a1-3)]GlcNAc
- Method Notes: glycan array binding signal (z-score within array); higher = stronger binding
- Test Conditions: glycan notation: IUPAC condensed, linker removed
The sample as a whole holds a higher share of the strongest signals than the screen did.
Listed next: entries and their corresponding glycan array binding signal (z-score).
Kindly provide the number alone.

Problem: Provide glycan array binding signal (z-score) value for the following binder: Pbx2CASH domain (Cryptococcus neoformans) (protein) GIPGPNRLYRLSGPIIFTAADQEIATYGYPTGSERAVLRVEGRNTATAIQGDCRRCARVSVKNLVVDGNRKKLGRMRDFQLATGLVVLGGNEGQSIQNSWIKNPRGFTAIHIREGDKLQCSGARVEKNEIGPVGEEYDPEKDGDDPEMSPLGRPLADGVSIACRDSFIRDNTFRDNTDAAIVVYCSPGTLIHA
Result: -0.748

Problem: Provide glycan array binding signal (z-score) value for the following binder: SSR1 (Sclerotium rolfsii), A0A0M3KL30 (protein) TYKITVRVYQTNPDAFFHPVEKTVWKYANGGTWTITDDQHVLTMGGSGTSGTLRFHADNGESFTATFGVHNYKRWCDIVTNLAADETGMVINQQYYSQKNREEARERQLSNYQVKNAKGRNFQIVYTEAEGNDLHANLIIG
Result: -0.349

Problem: Provide glycan array binding signal (z-score) value for the following binder: PEB4 (Campylobacter jejuni), A1VYV6 (protein) MKKFSLVAAALIAGVALNVNAATVATVNGKSISDAEVSEFFAPMLRGQDFKTLPDNQKKALIQQYIMQDLILQDAKKQNLEKDPLYTKELDRAKDAILVNVYQEKILNTIKIDAAKVKAFYDQNKDKYVKPARVQAKHILVATEKEAKDIINELKGLKGKELDAKFSELAKEKSIDPGSKNQGGELGWFDQSTMVKPFTDAAFALKNGTITTTPVKTNFGYHVILKENSQAKGQIKFDEVKQGIENGLKFEEFKKVINQKGQDLLNSAKVEYK
Result: 2.8
